From: ChEMBL document CHEMBL1759971

Provide the reported log10 of IC50 of each item.
# target-or-test-system: UniProt P50172
# test-description: Inhibition of mouse 11beta-HSD1 expressed in CHO-K1 cells assessed as conversion of [3H]cortisone to [3H]cortisol by scintillation counting
Response schema: value (number) is log10 of IC50 in units of nM.

Worked examples follow.
{"compound": "Cn1c(-c2ccc(-c3cc(=O)[nH]cn3)cc2)nnc1C1(c2ccc(Cl)cc2)CCC1", "target-or-test-system": "UniProt P50172", "reported-measurement": 0.45}
{"compound": "Cn1c(-c2ccc(NC(=O)c3cccs3)cc2)nnc1C1(c2ccc(Cl)cc2)CCC1", "target-or-test-system": "UniProt P50172", "reported-measurement": 0.00}
{"compound": "Cn1c(-c2ccc(-c3cnccn3)cc2C(N)=O)nnc1C1(c2ccc(Cl)cc2)CCC1", "target-or-test-system": "UniProt P50172", "reported-measurement": 1.83}
{"compound": "Cn1c(-c2ccc(-c3cnccn3)cc2Cl)nnc1C1(c2ccc(Cl)cc2)CC(F)C1 (stereo not given)", "target-or-test-system": "UniProt P50172", "reported-measurement": 0.36}

Read the next record carefully.
Prompt: Give the measured log10 of IC50 for Cn1c(-c2ccc(-c3cnoc3)cc2)nnc1C1(c2ccc(Cl)cc2)CCC1
Completion: 0.61

---

# target-or-test-system: 11-beta-hydroxysteroid dehydrogenase 1 (Mus musculus, UniProt P50172)
# Sequence (P50172 whole entry): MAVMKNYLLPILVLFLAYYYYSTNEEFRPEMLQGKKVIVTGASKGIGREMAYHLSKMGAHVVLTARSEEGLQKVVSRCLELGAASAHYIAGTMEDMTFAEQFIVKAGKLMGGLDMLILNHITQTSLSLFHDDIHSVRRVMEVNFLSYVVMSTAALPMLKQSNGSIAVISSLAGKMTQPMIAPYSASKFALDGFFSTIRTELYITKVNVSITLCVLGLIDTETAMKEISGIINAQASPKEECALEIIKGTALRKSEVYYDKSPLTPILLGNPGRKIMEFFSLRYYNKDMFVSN
# test-description: Inhibition of mouse 11beta-HSD1 expressed in CHO-K1 cells assessed as conversion of [3H]cortisone to [3H]cortisol by scintillation counting
pIC50: −log10 of the molar value.
Each entry gets not met if its pIC50 stays under 8, and met if its pIC50 is 8 or above.

{"substance-smiles": "Cn1c(-c2ccc(-c3cnc(N)nc3)cc2)nnc1C1(c2ccc(Cl)cc2)CCC1", "class-label": "met"}
{"substance-smiles": "Cn1c(-c2ccc(-c3cnccn3)cc2F)nnc1C1(c2ccc(Cl)cc2)CCC1", "class-label": "met"}
{"substance-smiles": "Cn1c(-c2ccc(N)cc2Cl)nnc1C1(c2ccc(Cl)cc2)CCC1", "class-label": "met"}

Prompt: Could you tell me if the measured pIC50 of CC(=O)Nc1ccc(-c2nnc(C3(c4ccc(Cl)cc4)CCC3)n2C)c(Cl)c1 reaches 8 or more?
Completion: met

Prompt: # bool: pIC50 of Cn1c(-c2ccc(C(=O)O)cc2Cl)nnc1C1(c2ccc(Cl)cc2)CCC1 >= 8
Completion: not met

Prompt: Check this compound for pIC50 at or above 8: Cn1c(-c2ccc(C(N)=O)cc2Cl)nnc1C1(c2ccc(Cl)cc2)CCC1
Completion: met

Prompt: Check the entry Cn1c(-c2ccc(C(=O)O)cc2)nnc1C1(c2ccc(Cl)cc2)CCC1 : does pIC50 equal or exceed 8?
Completion: not met

Prompt: Reported pIC50 reaches at least 8 for Cn1c(-c2ccc(C(=O)N3CCCC3)cc2)nnc1C1(c2ccc(Cl)cc2)CCC1 ?
Completion: not met

---

# Test system: Mus musculus
# test-description: Inhibition of 11beta-HSD1 in ICR mouse assessed as conversion of [3H]cortisone to [3H]cortisol at 10 mg/kg, po after 4 hrs by scintillation counting
# Assay type: functional
Label t when inhibition in vivo at 10 mg/kg >= 70%; otherwise f.

Please review the following examples before continuing.
{"substance-smiles": "Cn1c(-c2ccc(C(=O)N3CCCC3)cc2)nnc1C1(c2ccc(Cl)cc2)CCC1", "class-label": "f"}
{"substance-smiles": "COc1cc(-c2cccnc2)ccc1-c1nnc(C2(c3ccc(Cl)cc3)CCC2)n1C", "class-label": "t"}
{"substance-smiles": "Cn1c(-c2ccc(-c3ccon3)cc2)nnc1C1(c2ccc(Cl)cc2)CCC1", "class-label": "t"}
{"substance-smiles": "Cn1c(-c2ccc(C(N)=O)cc2Cl)nnc1C1(c2ccc(Cl)cc2)CCC1", "class-label": "f"}
{"substance-smiles": "COc1ncc(-c2ccc(-c3nnc(C4(c5ccc(Cl)cc5)CCC4)n3C)cc2)c(OC)n1", "class-label": "f"}

Prompt: Quick check: does Cn1c(-c2ccc(-c3ccc(Cl)nn3)cc2)nnc1C1(c2ccc(Cl)cc2)CCC1 have inhibition in vivo at 10 mg/kg greater than or equal to 70%?
Completion: f

Prompt: Please check the record Cn1c(-c2ccc(N)cc2)nnc1C1(c2ccc(Cl)cc2)CCC1 and state if its inhibition in vivo at 10 mg/kg is at or above 70%.
Completion: t

Prompt: Does the compound Cn1c(-c2ccc(C(N)=O)cc2C(N)=O)nnc1C1(c2ccc(Cl)cc2)CCC1 have recorded inhibition in vivo at 10 mg/kg that is 70% or more?
Completion: f
